protocol_description: Henry solubility constant Hcp at 298.15 K (mol/(m3 Pa))
assay_conditions: reference: Karl et al. (2003)
property: Henry solubility constant Hcp
Provide a numeric answer; units are not to be included.

For CCC/C=C/C=O [(E)-2-hexenal] the compound record lists Henry solubility constant Hcp as 0.14

For CC/C=C\CCOC(C)=O [(Z)-3-hexenyl ethanoate] the compound record lists Henry solubility constant Hcp as 0.031

----------
The entries below come with measured Henry solubility constant Hcp at 295 K values attached.
protocol_description: Henry solubility constant Hcp at 295 K (mol/(m3 Pa))
assay_conditions: reference: Karl et al. (2003)
Provide a numeric answer; units are not to be included.

For Cc1cccc(C)c1 [1,3-dimethylbenzene] the compound record lists Henry solubility constant Hcp at 295 K as 0.0013

For c1ccccc1 [benzene] the compound record lists Henry solubility constant Hcp at 295 K as 0.0018

For CCCc1ccccc1 [propylbenzene] the compound record lists Henry solubility constant Hcp at 295 K as 0.0015

For Cc1ccccc1 [methylbenzene] the compound record lists Henry solubility constant Hcp at 295 K as 0.0014

For CC1=CC=C(C(C)C)CC1 [1-methyl-4-(1-methylethyl)-1,3-cyclohexadiene] the compound record lists Henry solubility constant Hcp at 295 K as 0.00045

New cases:
For Cc1cc(C)cc(C)c1 [1,3,5-trimethylbenzene] the compound record lists Henry solubility constant Hcp at 295 K as 0.002
